Every entry's value here was drawn from patent US20140065241A1.

Target: human neutrophil NOX2 (Homo sapiens, UniProt P04839)
Construct: Using neutrophils from 11 healthy young volunteers; endogenous in cells
Sequence (P04839 2-570 limits assumed): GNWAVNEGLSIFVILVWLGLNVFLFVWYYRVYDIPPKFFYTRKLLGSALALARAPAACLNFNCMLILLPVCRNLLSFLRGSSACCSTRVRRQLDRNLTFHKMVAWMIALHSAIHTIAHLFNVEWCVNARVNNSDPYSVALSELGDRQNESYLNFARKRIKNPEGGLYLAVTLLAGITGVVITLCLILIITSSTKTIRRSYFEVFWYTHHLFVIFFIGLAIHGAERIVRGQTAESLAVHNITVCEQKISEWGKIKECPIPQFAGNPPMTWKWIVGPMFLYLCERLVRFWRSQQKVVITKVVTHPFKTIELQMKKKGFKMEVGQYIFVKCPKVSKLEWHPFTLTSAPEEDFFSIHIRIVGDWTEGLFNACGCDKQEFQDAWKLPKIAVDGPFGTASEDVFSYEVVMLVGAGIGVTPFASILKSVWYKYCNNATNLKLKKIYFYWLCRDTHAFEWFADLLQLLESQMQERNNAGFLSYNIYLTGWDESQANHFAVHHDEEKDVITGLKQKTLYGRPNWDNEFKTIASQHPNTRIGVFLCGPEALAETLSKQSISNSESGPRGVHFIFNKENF
Sequence (P13498 2-195 partner limits assumed): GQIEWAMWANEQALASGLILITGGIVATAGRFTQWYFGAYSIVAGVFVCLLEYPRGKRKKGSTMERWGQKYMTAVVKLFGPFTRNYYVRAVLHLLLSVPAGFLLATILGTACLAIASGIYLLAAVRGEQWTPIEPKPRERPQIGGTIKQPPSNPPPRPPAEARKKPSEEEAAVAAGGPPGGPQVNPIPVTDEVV
Test: Inhibition of ex vivo superoxide formation by NOX2 in human neutrophils
Conditions: neutrophils from 11 healthy young volunteers
pEC50: −log10 of the molar value.
Quantity Measured: pEC50

# Compound, Target System, Quantity Measured, Value Measured
measured = [
    ("C1CCC(C(CC2CCCCN2)C2CCCCC2)CC1 (single isomer, unassigned; (-)) [(−)-perhexyline, (−)-enantiomer of perhexyline]", "human neutrophil NOX2 (Homo sapiens, UniProt P04839)", "pEC50", 5.89),
    ("C1CCC(C(CC2CCCCN2)C2CCCCC2)CC1 (single isomer, unassigned; (+)) [(+)-perhexyline, (+)-enantiomer of perhexyline]", "human neutrophil NOX2 (Homo sapiens, UniProt P04839)", "pEC50", 5.74),
]
